Target or system Cathepsin S (Homo sapiens); metric IC50; compiled from varied reports.
Measured Parameter: IC50 (nM)

> print(dat)
                               smiles.entry  number
1  CNC(=O)O[C@H]1COc2ccc(N3CCN(C4COC4)CC3)cc2[C@@H]1NC(=O)c1ccc(F)cc1     7.7

a. N#CC1(NC(=O)[C@@H]2C[C@@H](S(=O)(=O)c3ccccc3)C[C@H]2C(=O)N2CC(O)C2)CC1
b. CCCC[C@H](NC(=O)OCC1(Cc2ccccc2)CCC1)C(=O)C(=O)N[C@H](C)c1ccccc1
c. CC(C)[C@H](NC(=O)OCc1ccccc1)C(=O)N[C@@H]1C(=O)N2CCO[C@H]12
## Task Put these in order: smallest IC50 first, largest last. Respond with an ordered listing of the labels, as requested.
## Result a, b, c
(a: 7 nM, b: 20 nM, c: 260 nM)
